tested on: Sida spinosa (SIDSP); assay: B2 Post-Emergence Efficacy - Test 2; type: in vivo; settings: 500 g/Ha, 15 days after application, 0-100 scale
Task for the reader: assign each of the following compounds its reported Herbicidal activity SIDSP.
Numbers only.

Some solved entries appear below for comparison.
{"Structure Notation": "Cc1nn(C)c(=O)c(-c2c(F)ccc(Cl)c2CCc2ccc(F)cc2)c1O", "Study Target": "Sida spinosa (SIDSP)", "Endpoint Value": 90}
{"Structure Notation": "Cc1nn(C)c(=O)c(-c2c(F)ccc(Cl)c2CCc2ccc(Cl)cc2)c1OC(=O)C(C)C", "Study Target": "Sida spinosa (SIDSP)", "Endpoint Value": 100}
{"Structure Notation": "Cc1nn(C)c(=O)c(-c2c(F)ccc(Cl)c2CCc2ccc(C(F)(F)F)nc2)c1O", "Study Target": "Sida spinosa (SIDSP)", "Endpoint Value": 100}

Go through the list and state Herbicidal activity SIDSP for each entry.
1. Cc1nn(C)c(=O)c(-c2c(F)ccc(Cl)c2CCc2ccc(F)cc2)c1OC(=O)C(C)C
2. Cc1nn(C)c(=O)c(-c2c(F)ccc(Cl)c2CCc2ccccc2C(F)(F)F)c1O
3. Cc1nn(C)c(=O)c(-c2c(F)ccc(Cl)c2CCc2ccc(C#N)cc2)c1O

a:
1: 100; 2: 100; 3: 100

###

Kindly state Herbicidal activity ALOMY for each of the entries shown.
test system: Alopecurus myosuroides (ALOMY); test: B2 Post-Emergence Efficacy - Test 2; type: in vivo; details: 60 g/Ha, 15 days after application, 0-100 scale
Answers are plain numbers.

{"Structure Notation": "Cc1nn(C)c(=O)c(-c2c(F)ccc(Cl)c2CCc2ccc(F)cc2)c1OC(=O)C(C)C", "Study Target": "Alopecurus myosuroides (ALOMY)", "Herbicidal activity ALOMY": 30}
{"Structure Notation": "Cc1nn(C)c(=O)c(-c2c(F)ccc(Cl)c2CCc2ccc(C#N)cc2)c1O", "Study Target": "Alopecurus myosuroides (ALOMY)", "Herbicidal activity ALOMY": 50}

// input: 2 molecules below; output: Herbicidal activity ALOMY for each
1. Cc1nn(C)c(=O)c(-c2c(F)ccc(Cl)c2CCc2ccc(C(F)(F)F)nc2)c1O
2. Cc1nn(C)c(=O)c(-c2c(F)ccc(Cl)c2CCc2ccc(Cl)cc2)c1OC(=O)C(C)C

a:
[80, 50]

Hi team, please reply with Herbicidal activity ALOMY for each item in this list.
1. Cc1nn(C)c(=O)c(-c2c(F)ccc(Cl)c2CCc2ccccc2C(F)(F)F)c1O
2. Cc1nn(C)c(=O)c(-c2c(F)ccc(Cl)c2CCc2ccc(F)cc2)c1O

a:
1. 70
2. 70

###

test system: Beta vulgaris (BEAVA); assay: B2 Post-Emergence Efficacy - Test 2; assay type: in vivo; settings: 15 g/Ha, 15 days after application, 0-100 scale
Measured Parameter: Herbicidal activity BEAVA

Consider the reported Herbicidal activity BEAVA for these compounds:
{"Structure Notation": "Cc1nn(C)c(=O)c(-c2c(F)ccc(Cl)c2CCc2ccccc2C(F)(F)F)c1O", "Study Target": "Beta vulgaris (BEAVA)", "Herbicidal activity BEAVA": 80}
{"Structure Notation": "Cc1nn(C)c(=O)c(-c2c(F)ccc(Cl)c2CCc2ccc(F)cc2)c1OC(=O)C(C)C", "Study Target": "Beta vulgaris (BEAVA)", "Herbicidal activity BEAVA": 70}

Report Herbicidal activity BEAVA for each item below.
1. Cc1nn(C)c(=O)c(-c2c(F)ccc(Cl)c2CCc2ccc(F)cc2)c1O
2. Cc1nn(C)c(=O)c(-c2c(F)ccc(Cl)c2CCc2ccc(C(F)(F)F)nc2)c1O

a:
70
80

Hey, quick one: what's Herbicidal activity BEAVA for each of these?
1. Cc1nn(C)c(=O)c(-c2c(F)ccc(Cl)c2CCc2ccc(C#N)cc2)c1O
2. Cc1nn(C)c(=O)c(-c2c(F)ccc(Cl)c2CCc2ccc(Cl)cc2)c1OC(=O)C(C)C

a:
1. 70
2. 90
